assay_text: in vitro
assay_setup: rat, gh3-tre-luc cells, AC50 (uM) modified / 1000
Structures can show the parent of a compound that is named as a salt.
# key: entry, value: CC50 at 24 h

// known answers, use as guide
molecule: CCCCC[C@H](O)/C=C/[C@H]1[C@H](O)CC(=O)[C@@H]1C/C=C\CCCC(=O)O
CC50 at 24 h: > 50 µM
//
molecule: CCC(c1ccccc1)c1noc(CCN(CC)CC)n1 (centres unmarked) [Proxazole citrate]
CC50 at 24 h: > 50 µM
//
molecule: CC(C)=CC=O
CC50 at 24 h: > 100 µM
//
molecule: O=[N+]([O-])C1(Br)COCOC1
CC50 at 24 h: 11.8 µM

// next entry
Prompt: Given CCCCCCCC/C=C\CCCCCCCC(=O)OCC(O)CO (centres unmarked) [Glyceryl monooleate] , respond with its CC50 at 24 h.
Response: > 90 µM
